Measured pIC50, listed per entry.
- Test system: MRC-5
- TEST_NAME: MTS cytotoxicity assay, MRC-5
- Type: cell-based
- REPORTED_CONDITIONS: Homo sapiens, MRC5, 72 h, MRC-5 normal fibroblasts, 3-day incubation
Just so you know, pIC50 here is -log10 of the concentration in molar units; reply with that number alone.

These solved cases illustrate the format of a correct answer.
[[record]]
chemical_structure = "C=C(C)[C@@H]1CC[C@]2(C(=O)N3CCN(CCN)CC3)CC[C@]3(C)[C@H](CC[C@@H]4[C@@]5(C)CC[C@H](O)C(C)(C)[C@@H]5CC[C@]43C)[C@@H]12"
measured_number = 5.80

[[record]]
chemical_structure = "C=C(C)[C@@H]1CC[C@]2(C(=O)NCCCNC3=C4C=CC=[N+]4[B-](F)(F)n4cccc43)CC[C@]3(C)[C@H](CC[C@@H]4[C@@]5(C)CC[C@H](OC(=O)CC(C)(C)C(=O)O)C(C)(C)[C@@H]5CC[C@]43C)[C@@H]12"
measured_number = 4.85

[[record]]
chemical_structure = "C=C(C)[C@@H]1CC[C@]2(C(=O)NCCCN=[N+]=[N-])CC[C@]3(C)[C@H](CC[C@@H]4[C@@]5(C)CC[C@H](OC(=O)CC(C)(C)C(=O)O)C(C)(C)[C@@H]5CC[C@]43C)[C@@H]12"
measured_number = 4.62


Q: Which value of pIC50 has been reported for `C=C(C)[C@@H]1CC[C@]2(C(=O)NCCCNC(=O)OC(C)(C)C)CC[C@]3(C)[C@H](CC[C@@H]4[C@@]5(C)CC[C@H](OC(=O)CC(C)(C)C(=O)O)C(C)(C)[C@@H]5CC[C@]43C)[C@@H]12` in the records?
Result: 4.64

Q: And `C=C(C)[C@@H]1CC[C@]2(C(=O)N3CCN(CCNC(=O)OC(C)(C)C)CC3)CC[C@]3(C)[C@H](CC[C@@H]4[C@@]5(C)CC[C@H](O)C(C)(C)[C@@H]5CC[C@]43C)[C@@H]12` ?
Result: 5.29

Q: And the next one, `C=C(C)[C@@H]1CC[C@]2(C(=O)N3CCN(CCNC(=O)OC(C)(C)C)CC3)CC[C@]3(C)[C@H](CC[C@@H]4[C@@]5(C)CC[C@H](OC(=O)CC(C)(C)C(=O)O)C(C)(C)[C@@H]5CC[C@]43C)[C@@H]12` ?
Result: 4.35

Q: Same for `C=C(C)[C@@H]1CC[C@]2(C(=O)NCCCN)CC[C@]3(C)[C@H](CC[C@@H]4[C@@]5(C)CC[C@H](O)C(C)(C)[C@@H]5CC[C@]43C)[C@@H]12`
Result: 5.59

###

- Tested on: U2OS
- TEST_NAME: MTS cytotoxicity assay, U2OS
- Format: cell-based
- REPORTED_CONDITIONS: Homo sapiens, 72 h, 3-day incubation
pIC50 reference
Please treat pIC50 as minus the base-10 logarithm of the molar concentration.

// known answers, use as guide
[[record]]
molecule = "C=C(C)[C@@H]1CC[C@]2(C(=O)NCCCN=[N+]=[N-])CC[C@]3(C)[C@H](CC[C@@H]4[C@@]5(C)CC[C@H](O)C(C)(C)[C@@H]5CC[C@]43C)[C@@H]12 [Compound 1]"
measured_number = 4.54

[[record]]
molecule = "C=C(C)[C@@H]1CC[C@]2(C(=O)NCCCNC3=C4C=CC=[N+]4[B-](F)(F)n4cccc43)CC[C@]3(C)[C@H](CC[C@@H]4[C@@]5(C)CC[C@H](OC(=O)CC(C)(C)C(=O)O)C(C)(C)[C@@H]5CC[C@]43C)[C@@H]12 [Compound 10]"
measured_number = 4.91


Q: Hi! What's the reported pIC50 for C=C(C)[C@@H]1CC[C@]2(C(=O)NCCCN)CC[C@]3(C)[C@H](CC[C@@H]4[C@@]5(C)CC[C@H](OC(=O)CCNC6=C7C=CC=[N+]7[B-](F)(F)n7cccc76)C(C)(C)[C@@H]5CC[C@]43C)[C@@H]12 [Compound 6] on U2OS?
Result: 5.30

Q: Try C=C(C)[C@@H]1CC[C@]2(C(=O)NCCCN)CC[C@]3(C)[C@H](CC[C@@H]4[C@@]5(C)CC[C@H](O)C(C)(C)[C@@H]5CC[C@]43C)[C@@H]12 [Compound 3] next.
Result: 6.05

###

- System: U2OS
- TEST_NAME: MTS cytotoxicity assay, U2OS
- Format: cell-based
- REPORTED_CONDITIONS: Homo sapiens, 72 h, 3-day incubation
RESULT_TYPE: IC50 (µM)
// units = µM; emit number, no label

# count of solved cases: 4
[[record]]
chemical_structure = "C=C(C)[C@@H]1CC[C@]2(C(=O)NCCCNC(=O)OC(C)(C)C)CC[C@]3(C)[C@H](CC[C@@H]4[C@@]5(C)CC[C@H](OC(=O)CC(C)(C)C(=O)O)C(C)(C)[C@@H]5CC[C@]43C)[C@@H]12"
assay_system = "U2OS"
unit_name = "µM"
measured_number = 17.2

[[record]]
chemical_structure = "C=C(C)[C@@H]1CC[C@]2(C(=O)N3CCN(CCN)CC3)CC[C@]3(C)[C@H](CC[C@@H]4[C@@]5(C)CC[C@H](OC(=O)CC(C)(C)C(=O)O)C(C)(C)[C@@H]5CC[C@]43C)[C@@H]12"
assay_system = "U2OS"
unit_name = "µM"
measured_number = 44.6

[[record]]
chemical_structure = "C=C(C)[C@@H]1CC[C@]2(C(=O)N3CCN(CCN)CC3)CC[C@]3(C)[C@H](CC[C@@H]4[C@@]5(C)CC[C@H](O)C(C)(C)[C@@H]5CC[C@]43C)[C@@H]12"
assay_system = "U2OS"
unit_name = "µM"
measured_number = 0.42

[[record]]
chemical_structure = "C=C(C)[C@@H]1CC[C@]2(C(=O)N3CCN(CCNC(=O)OC(C)(C)C)CC3)CC[C@]3(C)[C@H](CC[C@@H]4[C@@]5(C)CC[C@H](O)C(C)(C)[C@@H]5CC[C@]43C)[C@@H]12"
assay_system = "U2OS"
unit_name = "µM"
measured_number = 4.16


Q: Recorded IC50 for `C=C(C)[C@@H]1CC[C@]2(C(=O)O)CC[C@]3(C)[C@H](CC[C@@H]4[C@@]5(C)CC[C@H](O)C(C)(C)[C@@H]5CC[C@]43C)[C@@H]12` , please?
Result: 29.7

###

- Tested on: HCT116
- TEST_NAME: MTS cytotoxicity assay, HCT116
- Format: cell-based
- REPORTED_CONDITIONS: Homo sapiens, HCT-116, 72 h, 3-day incubation
- Experimental: All cells (if not indicated otherwise) were purchased from the American Tissue Culture Collection (ATCC; Manassas, VA, USA). […] To perform the cytotoxicity MTS assay, cell suspensions were prepared and diluted according to the cell type and the expected target cell density (25,000–35,000 cells/mL) based on cell growth characteristics. […] After this incubation period, the optical density (OD) was measured at 490 nm with an Envision microplate reader (Perkin Elmer, Waltham, Massachusetts, USA). […]
RESULT_TYPE: IC50

[[record]]
compound = "C=C(C)[C@@H]1CC[C@]2(C(=O)N3CCN(CCN)CC3)CC[C@]3(C)[C@H](CC[C@@H]4[C@@]5(C)CC[C@H](OC(=O)CC(C)(C)C(=O)O)C(C)(C)[C@@H]5CC[C@]43C)[C@@H]12 [Compound 17]"
result_type = "IC50"
result = "> 50 µM"


Q: Can you look up the measured IC50 of C=C(C)[C@@H]1CC[C@]2(C(=O)NCCCN=[N+]=[N-])CC[C@]3(C)[C@H](CC[C@@H]4[C@@]5(C)CC[C@H](O)C(C)(C)[C@@H]5CC[C@]43C)[C@@H]12 [Compound 1] for me?
Result: > 50 µM

Q: Now consider C=C(C)[C@@H]1CC[C@]2(C(=O)NCCCN)CC[C@]3(C)[C@H](CC[C@@H]4[C@@]5(C)CC[C@H](OC(=O)CC(C)(C)C(=O)O)C(C)(C)[C@@H]5CC[C@]43C)[C@@H]12 [Compound 9] .
Result: > 50 µM

###

- TEST_NAME: in vitro
- REPORTED_CONDITIONS: human
pIC50: −log10 of the molar value.
Collected pIC50 values appear next to each entry.

Some entries whose results are on file:
[[record]]
chemical_structure = "C=C(C)[C@@H]1CC[C@]2(C(=O)NCCCN)CC[C@]3(C)[C@H](CC[C@@H]4[C@@]5(C)CC[C@H](OC(=O)CC(C)(C)C(=O)O)C(C)(C)[C@@H]5CC[C@]43C)[C@@H]12"
result_type = "pIC50"
result = "< 4.40"

[[record]]
chemical_structure = "C=C(C)[C@@H]1CC[C@]2(C(=O)N3CCN(CCNC4=C5C=CC=[N+]5[B-](F)(F)n5cccc54)CC3)CC[C@]3(C)[C@H](CC[C@@H]4[C@@]5(C)CC[C@H](O)C(C)(C)[C@@H]5CC[C@]43C)[C@@H]12"
result_type = "pIC50"
result = "< 4.40"

[[record]]
chemical_structure = "C=C(C)[C@@H]1CC[C@]2(C(=O)NCCCNC(=O)OC(C)(C)C)CC[C@]3(C)[C@H](CC[C@@H]4[C@@]5(C)CC[C@H](OC(=O)CC(C)(C)C(=O)O)C(C)(C)[C@@H]5CC[C@]43C)[C@@H]12"
result_type = "pIC50"
result = 4.42

[[record]]
chemical_structure = "C=C(C)[C@@H]1CC[C@]2(C(=O)NCCCN=[N+]=[N-])CC[C@]3(C)[C@H](CC[C@@H]4[C@@]5(C)CC[C@H](O)C(C)(C)[C@@H]5CC[C@]43C)[C@@H]12"
result_type = "pIC50"
result = "< 4.40"


# next compound below
Q: Quick one: pIC50 of `C=C(C)[C@@H]1CC[C@]2(C(=O)N3CCN(CCN)CC3)CC[C@]3(C)[C@H](CC[C@@H]4[C@@]5(C)CC[C@H](OC(=O)CC(C)(C)C(=O)O)C(C)(C)[C@@H]5CC[C@]43C)[C@@H]12` ?
Result: < 4.40
